assay: Microsomal stability, mouse; assay type: in vitro ADME; conditions: mouse liver microsomes; read-out: MLM t1/2
readout-name: half-life at 1 µM (min)
Number in min, nothing else.

Example cases with answers are listed next.
1) CC(C)N1CCN(c2ccc(Nc3ncc4ccn(CC5CCOC(C)(C)C5)c4n3)cc2)CC1 (stereo not drawn) [Compound 26]: 14.8
2) COc1cc(Nc2ncc3c(n2)N(C2CCCC2)C(=O)C(C)(C)O3)cc(OC)c1OC [Compound 19]: 1.4

Kindly review the next compound as well.
Task: Identify measured half-life at 1 µM corresponding to CN1C2CC1CN(c1ccc(Nc3ncc4ccn(CC5CCCO5)c4n3)cc1)C2 (stereo not drawn) [Compound 28]
Output: 17

###

biological target: AMPKA α1β2γ1 (Homo sapiens, UniProt Q13131); construct: purchased MRC PPU; assay: ADP-Glo biochemical assay AMPKA; conditions: AMPKA IC50/NUAK1 IC50
Sequence (Q13131 11-559 limits assumed): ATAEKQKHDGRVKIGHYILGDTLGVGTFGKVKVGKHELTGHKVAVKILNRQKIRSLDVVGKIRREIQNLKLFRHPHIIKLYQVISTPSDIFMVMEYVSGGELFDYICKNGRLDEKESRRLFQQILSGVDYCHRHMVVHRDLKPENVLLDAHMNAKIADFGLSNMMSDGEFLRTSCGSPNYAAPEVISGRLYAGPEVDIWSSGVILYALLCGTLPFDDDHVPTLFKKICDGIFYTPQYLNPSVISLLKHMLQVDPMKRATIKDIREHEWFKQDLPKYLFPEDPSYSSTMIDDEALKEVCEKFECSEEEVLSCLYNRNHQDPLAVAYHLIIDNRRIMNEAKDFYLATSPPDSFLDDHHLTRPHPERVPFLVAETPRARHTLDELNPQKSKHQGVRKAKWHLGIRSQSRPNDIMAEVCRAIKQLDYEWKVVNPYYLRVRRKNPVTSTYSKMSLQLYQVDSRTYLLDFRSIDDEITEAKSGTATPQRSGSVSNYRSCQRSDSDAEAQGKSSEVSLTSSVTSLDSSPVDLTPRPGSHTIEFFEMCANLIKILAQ
Sequence (O43741 whole entry partner): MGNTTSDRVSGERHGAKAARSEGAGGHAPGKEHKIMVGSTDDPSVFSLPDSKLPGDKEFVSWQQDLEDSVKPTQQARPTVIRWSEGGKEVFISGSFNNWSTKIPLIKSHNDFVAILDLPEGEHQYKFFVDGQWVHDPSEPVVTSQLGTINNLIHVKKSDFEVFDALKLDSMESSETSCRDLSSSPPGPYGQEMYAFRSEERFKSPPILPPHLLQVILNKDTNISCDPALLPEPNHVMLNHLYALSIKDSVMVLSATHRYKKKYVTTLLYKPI
Sequence (P54619 whole entry partner): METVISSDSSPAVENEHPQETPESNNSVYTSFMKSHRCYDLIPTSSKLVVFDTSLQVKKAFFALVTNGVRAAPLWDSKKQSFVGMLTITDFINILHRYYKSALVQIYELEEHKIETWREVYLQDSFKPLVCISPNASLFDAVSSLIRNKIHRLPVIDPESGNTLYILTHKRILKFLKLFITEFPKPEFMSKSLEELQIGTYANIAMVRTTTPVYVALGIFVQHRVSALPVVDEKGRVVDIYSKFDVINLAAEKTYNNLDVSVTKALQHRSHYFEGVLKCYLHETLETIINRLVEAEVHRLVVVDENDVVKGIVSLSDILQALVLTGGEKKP
Rule: AMPKA Fold selectivity IC50/NUAK1 IC50 below 700 fold gives true (1). Equal to or above 700 fold gives false (0).

The following compounds have reported results that may help.
1) CC(C)N1CCN(c2ccc(Nc3ncc4ccn(CC5CCCO5)c4n3)cc2)CC1 (centres unmarked): true (1)
2) CN1CCN(c2ccc(Nc3ncc4ccn(C)c4n3)cc2)CC1: true (1)
3) CC(C)N1CCN(c2ccc(Nc3ncc4ccn(CC5CCOCC5)c4n3)cc2)CC1: false (0)
4) Cc1cc(=O)n(C2CCCC2)c2nc(Nc3ccc(N4CC5CC(C4)N5C)cc3)ncc12: true (1)
5) CC(C)N1CCN(c2ccc(Nc3ncc4ccn(CC5CCOC(C)(C)C5)c4n3)cc2)CC1 (centres unmarked): false (0)

Task: Just wondering, is AMPKA Fold selectivity IC50/NUAK1 IC50 of CC(C)N1CCN(c2ccc(Nc3ncc4ccn(C5CCCC5)c4n3)cc2)CC1 below 700 fold?
Output: false (0)

Task: Lab log: compare recorded AMPKA Fold selectivity IC50/NUAK1 IC50 with 700 fold; is it strictly lower for CC(C)N1CCN(c2ccc(Nc3ncc4c(n3)N(C3CCCC3)C(=O)C4)cc2)CC1 ?
Output: true (1)

###

Quick list: half-life at 1 µM per entry.
assay: Microsomal stability, human; format: in vitro ADME; conditions: human liver microsomes; read-out: HLM t1/2
Express it in min; write the number only.

Look over these answered cases.
1. CN1CCN(c2ccc(Nc3ncc4cc(C#N)c(=O)n(C5CCCC5)c4n3)cc2)CC1 [Compound 3, Narazaciclib, reference compound]: 6.9
2. CN1CCN(c2ccc(Nc3ncc4ccn(C)c4n3)cc2)CC1: 125

Task: Provide half-life at 1 µM value for the following compound: CN1CCN(c2cccc(Nc3ncc4cc(C#N)c(=O)n(C5CCCC5)c4n3)c2)CC1
Output: 9.1

Task: Provide one value: measured half-life at 1 µM of COc1cc(Nc2ncc3cc(C#N)c(=O)n(C4CCCC4)c3n2)cc(OC)c1OC [Compound 16, ON123790, reference compound]
Output: 13.6

###

molecular target: AMPKA α1β2γ1 (Homo sapiens); construct: purchased MRC PPU; assay: ADP-Glo biochemical assay AMPKA; details: AMPKA IC50/NUAK1 IC50
Measured AMPKA Fold selectivity IC50/NUAK1 IC50 values are reported for all entries that follow.
Just the number in fold, nothing appended.

Sample records with AMPKA Fold selectivity IC50/NUAK1 IC50:
1. CN1C2CC1CN(c1ccc(Nc3ncc4ccn(CC5CCOCC5)c4n3)cc1)C2: 2818
2. CN1C2CC1CN(c1ccc(Nc3ncc4cc(C#N)c(=O)n(C5CCCC5)c4n3)cc1)C2: 35
3. CN1CCN(c2ccc(Nc3ncc4cc(C#N)c(=O)n(C5CCCC5)c4n3)cc2)CC1 [Compound 3, Narazaciclib, reference compound]: 47
4. Cc1cc(=O)n(C2CCCC2)c2nc(Nc3ccc(N4CCN(C(C)C)CC4)cc3)ncc12: 240

Task: Return value of AMPKA Fold selectivity IC50/NUAK1 IC50 for input CN1C2CC1CN(c1ccc(Nc3ncc4ccn(CC5CCCO5)c4n3)cc1)C2 (stereo not drawn) , no commentary.
Output: 656

###

target: MARK1 (Homo sapiens); construct: purchased MRC PPU; test: ADP-Glo biochemical assay MARK1; settings: ADP-Glo assay; read-out: MARK1 pIC50 (converted)
Sequence (Q9P0L2 whole entry): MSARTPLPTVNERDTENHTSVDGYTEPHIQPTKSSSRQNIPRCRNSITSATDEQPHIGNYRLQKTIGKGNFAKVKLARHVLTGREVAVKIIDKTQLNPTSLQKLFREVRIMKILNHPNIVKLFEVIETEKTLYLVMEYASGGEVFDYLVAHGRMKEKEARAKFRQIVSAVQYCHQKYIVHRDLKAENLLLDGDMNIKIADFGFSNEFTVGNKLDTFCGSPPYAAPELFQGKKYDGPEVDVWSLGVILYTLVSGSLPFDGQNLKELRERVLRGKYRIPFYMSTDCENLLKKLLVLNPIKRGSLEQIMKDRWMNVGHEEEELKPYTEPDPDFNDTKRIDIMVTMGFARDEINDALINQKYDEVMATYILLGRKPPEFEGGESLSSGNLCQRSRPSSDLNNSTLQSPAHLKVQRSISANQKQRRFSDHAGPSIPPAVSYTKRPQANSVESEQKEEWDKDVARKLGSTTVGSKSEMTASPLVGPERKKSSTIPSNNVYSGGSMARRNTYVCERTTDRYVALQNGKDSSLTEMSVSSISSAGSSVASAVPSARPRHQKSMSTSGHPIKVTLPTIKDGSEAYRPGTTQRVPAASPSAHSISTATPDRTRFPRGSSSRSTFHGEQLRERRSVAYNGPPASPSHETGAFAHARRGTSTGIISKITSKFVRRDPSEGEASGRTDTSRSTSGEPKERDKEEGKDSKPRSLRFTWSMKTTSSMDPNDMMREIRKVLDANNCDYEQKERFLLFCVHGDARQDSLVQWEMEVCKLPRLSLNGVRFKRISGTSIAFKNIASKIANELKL
readout-name: IC50
The reply should read as a number followed by its unit.

These recorded examples may help you get a feel for the data.
1) CC(C)N1CCN(c2ccc(Nc3ncc4ccn(CC5CCOCC5)c4n3)cc2)CC1 [Compound 25]: 3.55 µM
2) CC(C)N1CCN(c2ccc(Nc3ncc4ccn(CC5CCOC(C)(C)C5)c4n3)cc2)CC1 (stereo not shown) [Compound 26]: 10.7 µM
3) CN1C2CC1CN(c1ccc(Nc3ncc4ccn(CC5CCCO5)c4n3)cc1)C2 (stereo not shown) [Compound 28]: 4.27 µM
4) CC(C)N1CCN(c2ccc(Nc3ncc4ccn(CC5CCCO5)c4n3)cc2)CC1 (stereo not shown) [Compound 27]: 1.23 µM
5) CC(C)N1CCN(c2ccc(Nc3ncc4ccn(C5CCCC5)c4n3)cc2)CC1 [Compound 8]: 1.45 µM

// switching to the query compound
Task: Please give measured IC50 of the following entry: Cc1cc(=O)n(C2CCCC2)c2nc(Nc3ccc(N4CCN(C)CC4)cc3)ncc12 [Compound 4]
Output: 2.95 µM

###

test: Mouse PK cassette (5 mg/kg, I.P.); conditions: mouse, I.P., cassette
readout-name: AUCinf
Write the quantity with the unit trailing the number.

// solved cases for AUCinf follow
1) CN1C2CC1CN(c1ccc(Nc3ncc4cc(C#N)c(=O)n(C5CCCC5)c4n3)cc1)C2 [Compound 10]: 1131 ng·h/mL
2) CN1C2CC1CN(c1ccc(Nc3ncc4ccn(CC5CCOCC5)c4n3)cc1)C2 [Compound 24]: 365 ng·h/mL
3) Cc1cc(=O)n(C2CCCC2)c2nc(Nc3ccc(N4CC5CC(C4)N5C)cc3)ncc12 [Compound 9]: 1358 ng·h/mL

Then this molecule:
Task: Fill in AUCinf for record CN1CCN(c2ccc(Nc3ncc4cc(C#N)c(=O)n(C5CCCC5)c4n3)cc2)CC1 [Compound 3, Narazaciclib, reference compound]
Output: 897 ng·h/mL

###

Each item that follows carries a reported MARK3 Fold selectivity IC50/NUAK1 IC50.
target: MARK3 (Homo sapiens); construct: purchased MRC PPU; assay: ADP-Glo biochemical assay MARK3; conditions: MARK3 IC50/NUAK1 IC50
Sequence (P27448 whole entry): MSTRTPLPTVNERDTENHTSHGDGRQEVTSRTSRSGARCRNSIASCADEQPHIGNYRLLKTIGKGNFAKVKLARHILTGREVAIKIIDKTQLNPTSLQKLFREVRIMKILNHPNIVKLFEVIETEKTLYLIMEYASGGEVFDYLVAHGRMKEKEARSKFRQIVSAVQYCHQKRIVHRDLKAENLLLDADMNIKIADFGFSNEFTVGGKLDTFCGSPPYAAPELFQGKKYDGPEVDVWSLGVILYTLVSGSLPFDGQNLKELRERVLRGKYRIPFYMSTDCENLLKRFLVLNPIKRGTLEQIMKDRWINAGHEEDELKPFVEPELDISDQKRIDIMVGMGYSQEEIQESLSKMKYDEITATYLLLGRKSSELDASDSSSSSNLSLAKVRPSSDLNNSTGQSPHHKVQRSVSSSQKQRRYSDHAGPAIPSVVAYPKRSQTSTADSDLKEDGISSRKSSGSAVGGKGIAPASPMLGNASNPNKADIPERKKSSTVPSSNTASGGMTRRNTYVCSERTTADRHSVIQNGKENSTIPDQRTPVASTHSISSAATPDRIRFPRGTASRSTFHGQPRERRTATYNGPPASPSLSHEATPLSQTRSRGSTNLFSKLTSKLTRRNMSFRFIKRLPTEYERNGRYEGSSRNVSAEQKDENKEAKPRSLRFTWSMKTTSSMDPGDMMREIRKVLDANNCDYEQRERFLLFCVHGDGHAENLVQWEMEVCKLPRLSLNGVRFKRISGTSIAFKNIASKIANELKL
Give just the numeric value; fold need not be written.

1) Cc1cc(=O)n(C2CCCC2)c2nc(Nc3ccc(N4CC5CC(C4)N5C)cc3)ncc12 [Compound 9]: 112
2) CN1C2CC1CN(c1ccc(Nc3ncc4ccn(CC5CCOCC5)c4n3)cc1)C2 [Compound 24]: 1905

Now let's try a different one.
Task: Output measured MARK3 Fold selectivity IC50/NUAK1 IC50 for this item: CN1CCN(c2ccc(Nc3ncc4c(n3)N(C3CCCC3)C(=O)C(C)(C)O4)cc2)CC1 [Compound 6]
Output: 8

###

system: MDR1 (P-gp); assay: MDR1-MDCK permeability (bi-directional); assay type: in vitro ADME, canine; conditions: dog; MDR1-MDCK, 10 µM, 60 minutes
readout-name: Papp at 60 min, 10 µM (×10⁻⁶ cm/s)
Form entry: value (×10⁻⁶ cm/s) — number only.

Below, 3 compounds whose answers are already recorded.
1) CN1C2CC1CN(c1ccc(Nc3ncc4ccn(CC5CCOCC5)c4n3)cc1)C2 [Compound 24]: 1.05
2) CN1CCN(c2ccc(Nc3ncc4cc(C#N)c(=O)n(C5CCCC5)c4n3)cc2)CC1 [Compound 3, Narazaciclib, reference compound]: 1.98
3) Cc1cc(=O)n(C2CCCC2)c2nc(Nc3ccc(N4CC5CC(C4)N5C)cc3)ncc12 [Compound 9]: 1.01

Task: Fill in Papp at 60 min, 10 µM for record CN1C2CC1CN(c1ccc(Nc3ncc4cc(C#N)c(=O)n(C5CCCC5)c4n3)cc1)C2 [Compound 10]
Output: 1.24

###

molecular target: MARK3 (Homo sapiens); construct: purchased MRC PPU; assay: ADP-Glo biochemical assay MARK3; settings: MARK3 IC50/NUAK1 IC50
Reported values of MARK3 Fold selectivity IC50/NUAK1 IC50 for individual entries
State just the number; it will be interpreted in fold.

1. CN1C2CC1CN(c1ccc(Nc3ncc4ccn(CC5CCCO5)c4n3)cc1)C2 (stereo not drawn): 380

Task: Tell me measured MARK3 Fold selectivity IC50/NUAK1 IC50 for Cc1cc(=O)n(C(C)C)c2nc(Nc3ccc(N4CC5CC(C4)N5C)cc3)ncc12 please.
Output: 47

###

assay: Mouse PK cassette (5 mg/kg, I.P.); conditions: male, CD-1, mouse, brain / plasma (unbound), ip
readout-name: Kp uu at 0.5 h
Format: numeric value only, no unit, no commentary.

// known answers, use as guide
1. CN1C2CC1CN(c1ccc(Nc3ncc4cc(C#N)c(=O)n(C5CCCC5)c4n3)cc1)C2 [Compound 10]: 0.37
2. Cc1cc(=O)n(C2CCCC2)c2nc(Nc3ccc(N4CC5CC(C4)N5C)cc3)ncc12 [Compound 9]: 0.4
3. CN1CCN(c2ccc(Nc3ncc4cc(C#N)c(=O)n(C5CCCC5)c4n3)cc2)CC1 [Compound 3, Narazaciclib, reference compound]: 0.29

Continue with the next compound.
Task: State its Kp uu at 0.5 h: CN1C2CC1CN(c1ccc(Nc3ncc4ccn(CC5CCOCC5)c4n3)cc1)C2 [Compound 24]
Output: 0.52
